Reported growth is given for each of the following compounds.
# Tested on: HCT-15 colon
# Test Details: NCI-60 one-dose screen, 48 h (100 = growth as untreated, 0 = no growth, -100 = all killed)
# Condition Context: 10 µM unless noted
# Description: Growth inhibition of the HCT-15 human tumor cell line is measured as a screen for anti-cancer activity. Cells are grown in 96 well plates and exposed to the test compound for 48 hours. Compounds are tested at a single concentration, which is 10^-5 M for most compounds. The reported endpoint is percent growth (GI% or GIPRCNT), where numbers from 0 - 100% represent growth inhibition, and numbers from -100% - 0 represent cell death. For example, a value of 40 represents 60% growth inhibition. […]
This is part of a sample that, as a whole, favours compounds with a hit. Of some 83,000 tested, about 20% had one in any assay.
State the answer as a number, implicitly in %.

O=C1CCCN1C1CCN2CCCc3cccc1c32 (centres undefined); 102
CCCCCCCCCCCCCCCCCC1=NCCN1CCO; 61.7
CN(C)c1nc(-c2ccco2)n2nc(-c3ccc(Cl)cc3)cc2n1; 92.7

Query: Quick one: growth of `CC1=C(O)C(=O)CC1` ?
Response: 108

---

# Tested on: LOX IMVI melanoma
# Test Details: NCI-60 one-dose screen, 48 h (100 = growth as untreated, 0 = no growth, -100 = all killed)
# Condition Context: 10 µM unless noted
The panel holds about 83,000 compounds, 20% with a hit somewhere; the sample as a whole holds those more often.
Property: growth (%)
State the answer as a number, implicitly in %.

Look over these answered cases.
CN(C)c1ccc(C2(Cl)c3ccccc3N(C)c3ccccc32)cc1; 27.6
CCNCCCn1c2c(c3ccc(Cl)cc3c1=O)C(=O)c1cc(OC)cnc1-2; -71.1
CCC(=O)NC1=C(Cl)C(=O)C(NC(=O)CC)=C(Cl)C1=O; 66.6
COc1cc(C2CC(c3ccccc3)=NN2C=O)ccc1Oc1nc2c(c(=O)n(C)c(=O)n2C)n1C (configuration not stated); 55

Query: Quick one: growth of O=C(c1ccccc1)C1OC1C(=O)c1ccccc1 (configuration not stated) ?
Response: 2.54

Query: Quick one: growth of `CCN(CC)CCNC(=O)n1cc(-c2ccncc2)c(-c2cc(Cl)cc(OC)c2)n1` ?
Response: 78.7

Query: Quick one: growth of `CN1CCC2(CC1)N=C(SCC(=O)Nc1cnc3ccccc3c1)C(c1ccc(Br)cc1)=N2` ?
Response: -78.5

Query: Quick one: growth of `CS(=O)(=O)c1ccc(C(=O)N/N=C/c2ccccc2O)cc1` ?
Response: 21.4

Query: Quick one: growth of `O=S1(=O)NCCCN1CCNc1nccc(-c2c(-c3cccc(O)c3)nc3sccn23)n1` ?
Response: 20.1

Query: Quick one: growth of `CCc1c(C)c2ccc(O)c(-c3cc(-c4ccccc4)c(C#N)c(=O)[nH]3)c2oc1=O` ?
Response: 93.1

Query: Quick one: growth of `COc1ccc2c(c1)sc1nc(-c3ccccc3)c(-c3cccc4ccccc34)n12` ?
Response: 38.6

Query: Quick one: growth of CCN1C(=O)/C(=C/N2N=C(c3ccc(Cl)cc3)CC2c2ccc(OC)cc2)SC1=S (configuration not stated) ?
Response: 84.5

---

# System: SR leukemia
# Test Details: NCI-60 one-dose screen, 48 h (100 = growth as untreated, 0 = no growth, -100 = all killed)
# Condition Context: 10 µM unless noted
About 83,000 compounds went through this panel and 20% of them were active in at least one assay; those are over-represented in the sample as a whole. The source made the active and inactive calls. The calls were made as follows: active = growth percent below 10; inactive = the rest.
Reported growth is given for each of the following compounds.

Query: Quick one: growth of CCN1C(=O)N(CC)C2C1NC(=O)N2/N=C/C=C/c1ccccc1 (stereo not drawn) ?
Response: 20.3% (inactive)

Query: Quick one: growth of `Nc1cc(C(=O)O)cc(C(=O)O)c1` ?
Response: 75.3% (inactive)

Query: Quick one: growth of `CN(C)c1nc(-c2ccco2)n2nc(-c3ccc(Cl)cc3)cc2n1` ?
Response: 52.7% (inactive)

Query: Quick one: growth of `CC(C)CCSc1nc(-c2ccc(F)cc2)c(C#N)c(N2CCN(C)CC2)n1` ?
Response: 67.5% (inactive)

Query: Quick one: growth of `O=c1c2cc(Cl)ccc2oc2ccc(OCCCCCN3CCCCCC3)cc12` ?
Response: 47.5% (inactive)

Query: Quick one: growth of `C#CCNc1nc(NCCNC(=O)CCl)nc(N(C)CCCCc2ccccc2)n1` ?
Response: 62.1% (inactive)

Query: Quick one: growth of `N/C(=N\O)c1ncc(-c2ccc(C(F)(F)F)cc2)c(NC2CCCCCC2)n1` ?
Response: -48.8% [100 µM] (active)

Query: Quick one: growth of CCOC(=O)C1C(=O)C=C(c2ccccc2)CC1c1sc(N(C)Cc2ccccc2)nc1Cl (stereo not drawn) ?
Response: 81.4% (inactive)
